biological target: PI3Kδ (Homo sapiens, UniProt O00329, S253N); test: Biochemical assay of PI3K potency and selectivity using 20 μM ATP, Delta; set-up: His tag (pFastbac HTb vector) (N); FLAG; made in house; host or cells: Sf21 insect cells (baculovirus); conditions: 20 μM ATP; read-out: Delta IC50
Sequence (O00329 whole entry S253N, one chain of several): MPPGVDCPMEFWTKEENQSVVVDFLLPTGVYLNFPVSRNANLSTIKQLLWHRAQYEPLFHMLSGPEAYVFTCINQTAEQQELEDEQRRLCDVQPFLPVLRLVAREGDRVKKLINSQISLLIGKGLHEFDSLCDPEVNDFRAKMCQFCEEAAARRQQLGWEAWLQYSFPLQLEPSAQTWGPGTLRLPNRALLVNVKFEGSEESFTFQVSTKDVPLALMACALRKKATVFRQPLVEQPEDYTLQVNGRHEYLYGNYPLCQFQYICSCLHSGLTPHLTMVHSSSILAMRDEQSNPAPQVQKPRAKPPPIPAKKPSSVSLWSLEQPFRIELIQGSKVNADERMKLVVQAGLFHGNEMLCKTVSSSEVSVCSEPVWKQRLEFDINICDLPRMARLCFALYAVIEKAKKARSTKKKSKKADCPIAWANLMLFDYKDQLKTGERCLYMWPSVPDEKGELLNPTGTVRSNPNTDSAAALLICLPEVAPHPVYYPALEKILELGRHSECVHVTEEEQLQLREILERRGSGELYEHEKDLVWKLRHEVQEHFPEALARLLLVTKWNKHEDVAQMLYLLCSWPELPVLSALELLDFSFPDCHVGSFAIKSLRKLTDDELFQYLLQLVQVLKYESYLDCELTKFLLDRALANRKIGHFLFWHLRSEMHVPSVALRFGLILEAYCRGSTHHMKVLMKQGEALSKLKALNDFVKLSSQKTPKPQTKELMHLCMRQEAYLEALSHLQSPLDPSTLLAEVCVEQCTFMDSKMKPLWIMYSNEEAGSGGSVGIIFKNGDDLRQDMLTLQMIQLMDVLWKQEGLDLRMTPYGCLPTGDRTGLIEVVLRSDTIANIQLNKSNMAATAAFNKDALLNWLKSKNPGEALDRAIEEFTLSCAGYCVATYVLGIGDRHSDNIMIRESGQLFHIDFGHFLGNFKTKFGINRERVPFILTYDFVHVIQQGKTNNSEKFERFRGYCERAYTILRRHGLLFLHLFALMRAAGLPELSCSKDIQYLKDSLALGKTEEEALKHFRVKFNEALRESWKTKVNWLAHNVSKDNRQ
Label scheme, based on IC50: low end: < 200 nM; middle: ≥ 200 nM and < 2000 nM; high end: ≥ 2000 nM

O=c1c2cc(Cl)ccc2nc(CSc2ncnc3[nH]cnc23)n1-c1ccccc1Cl ... middle
Nc1ncnc2c1ncn2Cc1nc2cc(F)ccc2c(=O)n1-c1ccccc1Cl ... high end
Cc1cccc2nc(Cn3cnc4c(N)ncnc43)n(-c3ccccc3Cl)c(=O)c12 ... low end
Nc1ncnc2c1ncn2Cc1nc2ccc(Br)cc2c(=O)n1-c1ccccc1Cl ... high end
O=c1c2ccccc2nc(CSc2ncnc3[nH]cnc23)n1Cc1ccccc1 ... middle
Cc1cccc2nc(Cn3cnc4c(N)ncnc43)n(-c3ccccc3C(C)C)c(=O)c12 ... low end
Nc1ncnc2c1ncn2Cc1nc2c(Cl)cccc2c(=O)n1-c1ccccc1Cl ... middle
Nc1ncnc2c1ncn2Cc1nc2cccc(Cl)c2c(=O)n1-c1ccccc1-c1ccccc1 ... low end
CC(=O)O.CN1CCN(n2c(CSc3ncnc4[nH]cnc34)nc3ccccc3c2=O)CC1 [Compound D-044, acetate salt] ... high end
O=c1c2c(F)cccc2nc(CSc2ncnc3[nH]cnc23)n1Cc1ccccc1 ... high end
COc1cc2nc(CSc3ncnc4[nH]cnc34)n(-c3ccccc3Cl)c(=O)c2cc1OC ... high end
Cc1ccccc1-n1c(CSc2ncnc3[nH]cnc23)nc2cccc(Cl)c2c1=O ... low end
CC(=O)O.O=c1c2ccccc2nc(CSc2ncnc3[nH]cnc23)n1N1CCOCC1 [Compound D-039, acetate salt] ... middle
COc1ccccc1-n1c(CSc2ncnc3[nH]cnc23)nc2cccc(C)c2c1=O ... low end
O=c1c2c(Cl)cccc2nc(CSc2ncnc3[nH]cnc23)n1-c1ccccc1Cl ... low end
CCCCn1c(Cn2cnc3c(N)ncnc32)nc2ccccc2c1=O ... middle
O=c1c2cc3ccccc3cc2nc(CSc2ncnc3[nH]cnc23)n1-c1ccccc1Cl ... high end
Cc1cccc2nc(CSc3ncnc4[nH]cnc34)n(-c3ccccc3F)c(=O)c12 ... low end
O=c1c2cc(Br)ccc2nc(CSc2ncnc3[nH]cnc23)n1-c1ccccc1Cl ... high end
O=c1c2ccccc2nc(CSc2ncnc3[nH]cnc23)n1-c1ccncc1 ... high end
O=c1c2ccccc2nc(CSc2ncnc3[nH]cnc23)n1-c1ccccc1Cl ... middle
Cc1cccc2nc(Cn3cnc4c(N)ncnc43)n(-c3ccccc3F)c(=O)c12 ... low end
Nc1ncnc2c1ncn2Cc1nc2cccc(Cl)c2c(=O)n1-c1ccccc1F ... low end
Cc1cccc2nc(CSc3ncnc4[nH]cnc34)n(-c3c(Cl)cccc3Cl)c(=O)c12 ... low end
Nc1ncnc2c1ncn2Cc1nc2ccc(Cl)cc2c(=O)n1-c1ccccc1Cl ... high end
O=c1c2ccc(F)cc2nc(CSc2ncnc3[nH]cnc23)n1-c1ccccc1Cl ... middle
O=c1c2cccc(Cl)c2nc(CSc2ncnc3[nH]cnc23)n1-c1ccccc1Cl ... middle
O=c1c2c(Cl)cccc2nc(CSc2ncnc3[nH]cnc23)n1-c1ccccc1-c1ccccc1 ... low end

---

target: PI3Kβ (Homo sapiens, UniProt P42338); construct: His tag (pFastbac HTa vector) (N); FLAG (N); made in house; host or cells: Sf21 insect cells (baculovirus); assay: Biochemical assay of PI3K potency and selectivity using 20 μM ATP, Beta; settings: 20 μM ATP; read-out: Beta IC50
Sequence (P42338 whole entry): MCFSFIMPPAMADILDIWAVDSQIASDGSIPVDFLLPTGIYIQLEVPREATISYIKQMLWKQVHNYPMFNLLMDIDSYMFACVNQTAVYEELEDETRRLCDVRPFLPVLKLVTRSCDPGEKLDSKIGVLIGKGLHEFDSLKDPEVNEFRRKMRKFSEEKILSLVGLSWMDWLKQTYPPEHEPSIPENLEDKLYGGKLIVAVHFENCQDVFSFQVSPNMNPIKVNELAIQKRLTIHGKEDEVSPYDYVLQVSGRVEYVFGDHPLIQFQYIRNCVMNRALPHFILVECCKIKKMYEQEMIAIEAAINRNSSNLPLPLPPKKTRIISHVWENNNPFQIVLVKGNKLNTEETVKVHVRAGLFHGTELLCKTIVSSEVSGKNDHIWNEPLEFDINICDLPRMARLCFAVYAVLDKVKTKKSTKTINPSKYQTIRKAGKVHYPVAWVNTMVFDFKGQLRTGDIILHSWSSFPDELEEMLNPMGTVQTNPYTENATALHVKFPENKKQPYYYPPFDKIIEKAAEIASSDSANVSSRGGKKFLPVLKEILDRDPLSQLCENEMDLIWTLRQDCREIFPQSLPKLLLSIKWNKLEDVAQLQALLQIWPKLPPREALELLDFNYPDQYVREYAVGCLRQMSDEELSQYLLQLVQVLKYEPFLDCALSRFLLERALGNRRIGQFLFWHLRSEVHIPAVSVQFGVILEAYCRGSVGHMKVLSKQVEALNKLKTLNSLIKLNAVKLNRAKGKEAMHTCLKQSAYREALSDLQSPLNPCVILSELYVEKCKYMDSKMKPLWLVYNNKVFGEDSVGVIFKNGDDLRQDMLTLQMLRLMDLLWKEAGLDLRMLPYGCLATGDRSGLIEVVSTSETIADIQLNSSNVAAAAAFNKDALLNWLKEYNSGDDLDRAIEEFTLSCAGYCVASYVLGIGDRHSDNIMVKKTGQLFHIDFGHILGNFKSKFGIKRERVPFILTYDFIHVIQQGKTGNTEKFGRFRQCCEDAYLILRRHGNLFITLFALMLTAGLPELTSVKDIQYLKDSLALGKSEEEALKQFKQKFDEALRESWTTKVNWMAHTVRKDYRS
Sequence (P27986 whole entry partner): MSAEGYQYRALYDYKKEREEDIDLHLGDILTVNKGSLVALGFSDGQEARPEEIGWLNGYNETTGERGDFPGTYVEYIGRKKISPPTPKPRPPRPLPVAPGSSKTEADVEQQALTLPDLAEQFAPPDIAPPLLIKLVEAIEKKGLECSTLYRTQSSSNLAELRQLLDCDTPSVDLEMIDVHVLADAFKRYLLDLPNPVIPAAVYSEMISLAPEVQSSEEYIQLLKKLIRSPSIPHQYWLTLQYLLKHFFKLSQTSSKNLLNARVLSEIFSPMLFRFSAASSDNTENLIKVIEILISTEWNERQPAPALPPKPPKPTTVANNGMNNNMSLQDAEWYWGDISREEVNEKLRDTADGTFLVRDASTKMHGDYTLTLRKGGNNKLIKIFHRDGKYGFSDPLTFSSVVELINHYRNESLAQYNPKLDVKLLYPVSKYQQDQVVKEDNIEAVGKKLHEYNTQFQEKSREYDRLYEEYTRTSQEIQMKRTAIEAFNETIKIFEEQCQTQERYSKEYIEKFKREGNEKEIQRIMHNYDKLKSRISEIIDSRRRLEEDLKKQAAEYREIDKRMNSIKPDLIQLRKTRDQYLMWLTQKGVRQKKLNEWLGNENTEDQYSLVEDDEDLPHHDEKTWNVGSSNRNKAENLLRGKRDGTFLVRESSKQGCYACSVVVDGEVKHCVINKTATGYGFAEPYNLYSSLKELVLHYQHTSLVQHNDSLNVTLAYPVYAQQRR
Here, each record is paired with measured IC50 data.
Endpoint Label: IC50 (µM)

O=c1c2cc(F)c(F)cc2nc(CSc2ncnc3[nH]cnc23)n1-c1ccccc1Cl ... 58
O=c1c2cccc(Cl)c2nc(CSc2ncnc3[nH]cnc23)n1-c1ccccc1Cl ... 110
Nc1ncnc2c1ncn2Cc1nc2cccc(F)c2c(=O)n1-c1ccccc1Cl ... 46
O=c1c2ccccc2nc(CSc2ncnc3[nH]cnc23)n1-c1ccncc1 ... 25
CC(=O)O.CN1CCN(n2c(CSc3ncnc4[nH]cnc34)nc3ccccc3c2=O)CC1 [Compound D-044, acetate salt] ... 61
O=c1c2ccccc2nc(CSc2ncnc3[nH]cnc23)n1Cc1ccccc1 ... 80

---

target: PI3Kβ (Homo sapiens, UniProt P42338); construct: His tag (pFastbac HTa vector) (N); FLAG (N); made in house; host or cells: Sf21 insect cells (baculovirus); experiment: Biochemical assay of PI3K potency and selectivity using 20 μM ATP, Beta; conditions: 20 μM ATP; ratio of IC50 values; > = hypothetical ratio with 100 μM substituted for the missing IC50
Endpoint Label: Beta/Delta Ratio

O=c1c2c(Cl)cccc2nc(CSc2ncnc3[nH]cnc23)n1-c1ccccc1Cl [Compound D-025] ... >909
CC(=O)O.O=c1c2ccccc2nc(CSc2ncnc3[nH]cnc23)n1N1CCOCC1 [Compound D-039] ... >111
CCCCn1c(CSc2ncnc3[nH]cnc23)nc2ccccc2c1=O [Compound D-038] ... >170
COc1cccc(-n2c(CSc3ncnc4[nH]cnc34)nc3ccccc3c2=O)c1 [Compound D-040] ... >61
O=c1c2ccccc2nc(CSc2ncnc3[nH]cnc23)n1-c1ccccc1Cl [Compound D-000] ... >302
COc1cc2nc(CSc3ncnc4[nH]cnc34)n(-c3ccccc3Cl)c(=O)c2cc1OC [Compound D-016] ... >3

---

Here, each record is paired with measured IC50 data.
molecular target: PI3Kγ (Homo sapiens, UniProt P48736); construct: His tag (pFastbac HTb vector) (N); FLAG (N); made in house; host or cells: Sf21 insect cells (baculovirus); assay: Biochemical assay of PI3K potency and selectivity using 20 μM ATP, Gamma
Sequence (P48736 whole entry): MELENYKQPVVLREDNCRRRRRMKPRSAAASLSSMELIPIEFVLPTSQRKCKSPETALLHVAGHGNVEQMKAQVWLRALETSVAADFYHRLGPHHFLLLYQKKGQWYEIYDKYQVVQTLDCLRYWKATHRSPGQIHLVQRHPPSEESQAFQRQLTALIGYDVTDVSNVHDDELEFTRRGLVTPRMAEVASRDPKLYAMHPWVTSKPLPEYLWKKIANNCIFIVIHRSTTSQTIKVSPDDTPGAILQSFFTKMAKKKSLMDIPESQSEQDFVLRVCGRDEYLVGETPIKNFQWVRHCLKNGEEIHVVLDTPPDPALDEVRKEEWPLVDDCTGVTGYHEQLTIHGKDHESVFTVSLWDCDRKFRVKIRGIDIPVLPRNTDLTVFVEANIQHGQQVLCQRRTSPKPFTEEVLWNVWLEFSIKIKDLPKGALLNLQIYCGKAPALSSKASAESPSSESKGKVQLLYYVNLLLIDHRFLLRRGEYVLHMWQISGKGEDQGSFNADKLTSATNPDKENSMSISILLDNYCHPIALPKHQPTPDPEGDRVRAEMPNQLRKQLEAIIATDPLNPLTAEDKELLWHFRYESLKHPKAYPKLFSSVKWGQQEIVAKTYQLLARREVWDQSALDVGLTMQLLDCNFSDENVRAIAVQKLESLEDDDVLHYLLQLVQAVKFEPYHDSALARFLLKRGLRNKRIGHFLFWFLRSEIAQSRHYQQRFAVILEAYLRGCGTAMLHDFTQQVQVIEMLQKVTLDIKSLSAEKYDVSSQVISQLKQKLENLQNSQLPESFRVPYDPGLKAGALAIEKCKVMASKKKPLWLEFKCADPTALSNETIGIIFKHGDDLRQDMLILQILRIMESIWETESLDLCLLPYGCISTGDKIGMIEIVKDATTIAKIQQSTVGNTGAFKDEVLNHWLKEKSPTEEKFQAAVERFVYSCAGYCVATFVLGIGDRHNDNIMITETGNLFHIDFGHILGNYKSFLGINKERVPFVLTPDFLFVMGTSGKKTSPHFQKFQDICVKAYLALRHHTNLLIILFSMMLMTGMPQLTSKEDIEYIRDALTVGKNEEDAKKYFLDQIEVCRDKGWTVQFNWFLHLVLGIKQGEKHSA
Endpoint Label: IC50 (nM)

O=c1c2c(Cl)cccc2nc(CSc2ncnc3[nH]cnc23)n1-c1ccccc1F ... 1000
Cc1ccccc1-n1c(CSc2ncnc3[nH]cnc23)nc2cccc(Cl)c2c1=O ... 700
O=c1c2c(Cl)cccc2nc(CSc2ncnc3[nH]cnc23)n1-c1ccccc1Cl ... 1500

---

tested on: T cell proliferation; test: Stimulated T cell proliferation (Mouse TCE Stim, Table 4); format: cell-based; conditions: stimulated T cell proliferation, read-out: Mouse TCE Stim (EC50)
Please assign not satisfied whenever EC50 is at or above 4 µM, and satisfied whenever it is below.

O=c1c2ccccc2nc(CSc2ncnc3[nH]ncc23)n1-c1ccccc1Cl [Compound D-999, reference compound] ... not satisfied
CCCCn1c(CSc2ncnc3[nH]cnc23)nc2ccccc2c1=O ... satisfied
O=c1c2cc3ccccc3cc2nc(CSc2ncnc3[nH]cnc23)n1-c1ccccc1Cl ... satisfied
Nc1ncnc2c1ncn2Cc1nc2cc(F)ccc2c(=O)n1-c1ccccc1Cl ... not satisfied
O=c1c2c(Cl)cccc2nc(CSc2ncnc3[nH]cnc23)n1-c1ccccc1Cl ... not satisfied
O=c1c2c(F)cccc2nc(CSc2ncnc3[nH]cnc23)n1-c1ccccc1Cl ... satisfied
Nc1ncnc2c1ncn2Cc1nc2cccc(Cl)c2c(=O)n1-c1ccccc1Cl ... not satisfied

---

target: PI3Kα (Homo sapiens, UniProt P42336); construct: His tag (pFastbac HTb vector) (N); FLAG; made in house; host or cells: Sf21 insect cells (baculovirus); assay: Biochemical assay using 200 μM ATP, Alpha
Sequence (P42336 whole entry): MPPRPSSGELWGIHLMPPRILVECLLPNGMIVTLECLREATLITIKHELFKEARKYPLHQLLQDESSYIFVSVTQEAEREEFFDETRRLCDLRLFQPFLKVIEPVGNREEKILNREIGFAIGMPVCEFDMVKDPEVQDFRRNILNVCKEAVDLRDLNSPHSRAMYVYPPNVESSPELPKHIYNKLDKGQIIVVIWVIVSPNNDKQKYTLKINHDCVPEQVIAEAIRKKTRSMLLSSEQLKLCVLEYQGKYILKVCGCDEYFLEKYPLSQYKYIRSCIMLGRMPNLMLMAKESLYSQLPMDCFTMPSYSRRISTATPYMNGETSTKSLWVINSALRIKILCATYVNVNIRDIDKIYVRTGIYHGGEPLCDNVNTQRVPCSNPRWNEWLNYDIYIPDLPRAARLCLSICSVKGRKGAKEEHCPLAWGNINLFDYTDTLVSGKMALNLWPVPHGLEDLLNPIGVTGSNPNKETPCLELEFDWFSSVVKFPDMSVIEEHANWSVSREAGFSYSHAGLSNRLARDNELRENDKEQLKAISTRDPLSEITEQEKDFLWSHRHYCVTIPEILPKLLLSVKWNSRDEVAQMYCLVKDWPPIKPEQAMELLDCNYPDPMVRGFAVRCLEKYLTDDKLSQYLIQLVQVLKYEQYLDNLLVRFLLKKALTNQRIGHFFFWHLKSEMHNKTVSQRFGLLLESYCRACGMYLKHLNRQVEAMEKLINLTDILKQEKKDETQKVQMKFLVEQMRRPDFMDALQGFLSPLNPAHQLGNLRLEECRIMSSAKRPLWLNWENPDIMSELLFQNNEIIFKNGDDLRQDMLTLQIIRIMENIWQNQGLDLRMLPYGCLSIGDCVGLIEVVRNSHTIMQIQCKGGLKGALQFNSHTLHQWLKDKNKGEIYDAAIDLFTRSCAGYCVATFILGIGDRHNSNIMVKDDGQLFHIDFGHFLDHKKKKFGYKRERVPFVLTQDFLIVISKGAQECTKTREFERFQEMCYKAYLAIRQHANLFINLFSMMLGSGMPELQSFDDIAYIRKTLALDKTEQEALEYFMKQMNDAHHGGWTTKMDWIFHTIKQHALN
Sequence (P27986 whole entry partner): as the sequence (P27986 whole entry partner) above
Endpoint Label: Alpha/Delta Ratio

O=c1c2cc(F)c(F)cc2nc(CSc2ncnc3[nH]cnc23)n1-c1ccccc1Cl [Compound D-027] ... 37
COc1ccccc1-n1c(CSc2ncnc3[nH]cnc23)nc2cccc(C)c2c1=O [Compound D-047] ... 810
Cc1cccc2nc(Cn3cnc4c(N)ncnc43)n(-c3ccccc3C(C)C)c(=O)c12 [Compound D-029] ... 653
O=c1c2cc(F)ccc2nc(CSc2ncnc3[nH]cnc23)n1-c1ccccc1Cl [Compound D-028] ... 125
O=c1c2ccccc2nc(CSc2ncnc3[nH]ncc23)n1-c1ccccc1Cl [Compound D-999, reference compound] ... 2
O=c1c2c(Cl)cccc2nc(CSc2ncnc3[nH]cnc23)n1-c1ccccc1F [Compound D-011] ... 700
O=c1c2c(Cl)cccc2nc(CSc2ncnc3[nH]cnc23)n1-c1ccccc1Cl [Compound D-025] ... 556
Nc1ncnc2c1ncn2Cc1nc2cccc(Cl)c2c(=O)n1-c1ccccc1-c1ccccc1 [Compound D-009] ... 200
Cc1ccccc1-n1c(CSc2ncnc3[nH]cnc23)nc2cccc(Cl)c2c1=O [Compound D-010] ... 658
CCCCn1c(CSc2ncnc3[nH]cnc23)nc2ccccc2c1=O [Compound D-038] ... 77
Nc1ncnc2c1ncn2Cc1nc2cccc(F)c2c(=O)n1-c1ccccc1Cl [Compound D-005] ... 20
Cc1cccc2nc(Cn3cnc4c(N)ncnc43)n(-c3ccccc3F)c(=O)c12 [Compound D-048] ... 67
Cc1cccc2nc(Cn3cnc4c(N)ncnc43)n(-c3ccccc3Cl)c(=O)c12 [Compound D-007] ... 252
O=c1c2ccccc2nc(CSc2ncnc3[nH]cnc23)n1-c1ccccc1Cl [Compound D-000] ... 91
O=c1c2ccccc2nc(CSc2ncnc3[nH]cnc23)n1Cc1ccccc1 [Compound D-037] ... 64
O=c1c2ccccc2nc(CSc2ncnc3[nH]cnc23)n1-c1ccccc1 [Compound D-121] ... 158
O=c1c2cc3ccccc3cc2nc(CSc2ncnc3[nH]cnc23)n1-c1ccccc1Cl [Compound D-019] ... 7
O=c1c2c(F)cccc2nc(CSc2ncnc3[nH]cnc23)n1-c1ccccc1Cl [Compound D-015] ... 180
Nc1ncnc2c1ncn2Cc1nc2cccc(Cl)c2c(=O)n1-c1ccccc1Cl [Compound D-006] ... 226
O=c1c2c(Cl)cccc2nc(CSc2ncnc3[nH]cnc23)n1-c1ccccc1-c1ccccc1 [Compound D-013] ... 461
